The reported numbers originate from patent US20250361230A1.

The entries below are paired with their reported IC50.
Target: AKT (Homo sapiens, UniProt P31749)
Sequence (P31749 whole entry): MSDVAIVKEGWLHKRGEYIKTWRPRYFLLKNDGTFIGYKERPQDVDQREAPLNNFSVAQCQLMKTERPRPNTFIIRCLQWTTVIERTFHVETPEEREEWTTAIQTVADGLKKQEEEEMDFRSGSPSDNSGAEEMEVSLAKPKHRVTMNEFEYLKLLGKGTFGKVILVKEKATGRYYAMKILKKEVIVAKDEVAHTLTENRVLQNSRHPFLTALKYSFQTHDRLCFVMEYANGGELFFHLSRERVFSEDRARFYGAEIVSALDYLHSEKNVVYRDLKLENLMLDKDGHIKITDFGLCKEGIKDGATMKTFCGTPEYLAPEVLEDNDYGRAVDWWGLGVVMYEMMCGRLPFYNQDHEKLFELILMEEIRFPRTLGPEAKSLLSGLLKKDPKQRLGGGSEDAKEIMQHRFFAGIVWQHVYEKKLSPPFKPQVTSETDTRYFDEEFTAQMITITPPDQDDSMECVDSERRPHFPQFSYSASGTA
Experiment: RBC HotSpot kinase assay (33P-ATP, P81 filter-binding), AKT
Assay type: biochemical
Settings: Table 28, biochemical kinase assay; read-out: AKT IC50
// units = nM; emit number, no label

# count of solved cases: 5
COMPOUND: Fc1cnc2[nH]ccc2c1-c1ccc(C2CCNCC2)cc1 [Compound 186]
SYSTEM_NAME: AKT (Homo sapiens, UniProt P31749)
DATA_VALUE: 2050
--
COMPOUND: C[C@@H]1CNC[C@H](C)[C@@]1(O)c1ccc(-c2ccnc3[nH]cc(F)c23)cc1OC(F)(F)F [Compound 14]
SYSTEM_NAME: AKT (Homo sapiens, UniProt P31749)
DATA_VALUE: 112
--
COMPOUND: OC1(c2ccc(-c3ccnc4[nH]cc(-c5cccnc5)c34)cc2)CCNCC1 [Compound 126]
SYSTEM_NAME: AKT (Homo sapiens, UniProt P31749)
DATA_VALUE: 245
--
COMPOUND: C[C@@H]1CN(C2CCS(=O)(=O)CC2)C[C@H](C)C1(O)c1cnc(-c2ccnc3[nH]cc(F)c23)cc1F (some centres unmarked) [Compound 35]
SYSTEM_NAME: AKT (Homo sapiens, UniProt P31749)
DATA_VALUE: 2080
--
COMPOUND: OC1(c2c(F)cc(-c3ccnc4[nH]cc(F)c34)cc2F)CC2(CNC2)C1 [Compound 109]
SYSTEM_NAME: AKT (Homo sapiens, UniProt P31749)
DATA_VALUE: 2980

Consider CN1CCC(O)(c2ccc(-c3ccnc4[nH]cc(-c5cccnc5)c34)cc2)CC1 [Compound 128] . Its measured IC50 is 2050

Consider C[C@@H]1CN(C(=O)CN(C)C)C[C@H](C)C1(O)c1c(F)cc(-c2ccnc3[nH]cc(F)c23)cc1F (some centres unmarked) [Compound 80] . Its measured IC50 is 700

Consider CN1C[C@H]2CC[C@@H](C1)C2(O)c1ccc(-c2ccnc3[nH]cc(F)c23)cc1Cl (some centres unmarked) [Compound 136] . Its measured IC50 is 1060

Consider CC(=O)N1CCC(c2ccc(-c3ccnc4[nH]cc(F)c34)cc2Cl)CC1 [Compound 171] . Its measured IC50 is 5400

Consider Cc1cc(-c2ccnc3[nH]cc(F)c23)ccc1[C@@]1(O)[C@H](C)CN(C2CCOCC2)C[C@@H]1C [Compound 27] . Its measured IC50 is 47.9

Consider COCCNc1cc(-c2ccnc3[nH]ccc23)ccc1CN [Compound 231] . Its measured IC50 is 437

Consider COC(=O)c1c[nH]c2nccc(-c3ccc(C4(O)CNC4)c(Cl)c3)c12 [Compound 106] . Its measured IC50 is 885

Consider NCc1ccc(-c2ccnc3[nH]cc(Cl)c23)cc1Cl [Compound 249] . Its measured IC50 is 218

Consider Cc1cc(-c2ccnc3[nH]cc(F)c23)cc(F)c1C1(O)[C@H](C)CN(C2COC2)C[C@@H]1C (some centres unmarked) [Compound 30] . Its measured IC50 is 698

Consider CN1CCC(O)(c2ccc(-c3ccnc4[nH]cc(Br)c34)cc2)CC1 [Compound 124] . Its measured IC50 is 128

Consider COC(=O)c1c[nH]c2nccc(-c3ccc(CN)c(-c4ccccc4)c3)c12 [Compound 214] . Its measured IC50 is 986
